Recorded values, source ChEMBL document CHEMBL5665443.

# SUBJECT OF TEST: Single-strand selective monofunctional uracil DNA glycosylase (Homo sapiens) (UniProt Q53HV7)
# Sequence (whole entry): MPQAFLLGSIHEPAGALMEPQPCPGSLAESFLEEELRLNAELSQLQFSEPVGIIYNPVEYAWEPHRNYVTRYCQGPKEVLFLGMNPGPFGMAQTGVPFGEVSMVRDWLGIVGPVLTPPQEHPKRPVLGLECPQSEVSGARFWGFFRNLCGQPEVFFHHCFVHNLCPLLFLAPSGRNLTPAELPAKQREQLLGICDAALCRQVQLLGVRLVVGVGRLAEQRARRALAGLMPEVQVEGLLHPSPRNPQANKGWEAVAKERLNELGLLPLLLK
# DETAILS: Compound Concentration 10.0 uM, Hit No;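 note: enzymatic SMUG1 assay coupled with APE1, reading fluorescence at 594 nm released when a quenched double-stranded DNA oligonucleotide substrate is cleaved and separated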
# Description: Inhibition of SMUG1 by quantifying inhibition of SMUG1-mediated cleavage and dissociation of quenched duplex DNA oligonucleotides, measured as fluorescence at 594 nm. To generate a functional strand incision and increase turn-over this assay is coupled to APE1.
inhibition for assorted compounds
Value expressed in %; do not type the unit.

Take a look at these entries with their results.
[[record]]
compound = "C[C@H](CCOc1cccc(CC(=O)O)c1)N(Cc1cccc(C(F)(F)F)c1Cl)CC(c1ccccc1)c1ccccc1"
value_observed = 19

[[record]]
compound = "FC(F)(F)c1c(N2CCC(c3ccccc3)CC2)ccn2c(CC3CC3)nnc12"
value_observed = 1.61

[[record]]
compound = "CN1CCN(c2ccc(/C=C(\\C#N)c3ccccc3Br)cc2)CC1"
value_observed = 7.83


*Q* Which inhibition value belongs to `C[C@H](c1ccc(F)cc1)N(Cc1ccc(Cl)c(C(=O)O)c1)C(=O)c1cnc2ccccc2c1` ?
*A* 16.2

*Q* Which inhibition value belongs to `CN(C)c1ncnc(-c2ccc3nc(Nc4cc(CN5CCN(C(=O)CC(F)(F)F)CC5)ccn4)[nH]c3c2)c1Cl` ?
*A* 12.7

*Q* Which inhibition value belongs to `CCCCCCCCc1ccc(CC[C@](N)(CO)COP(=O)(O)O)cc1` ?
*A* 0.742

*Q* Which inhibition value belongs to `O=C(NCCCN1CCOC1=O)c1cnc(NCc2cc(Br)ccc2Br)nc1NC1CCCC1` ?
*A* 15.1

*Q* Which inhibition value belongs to `Cc1cc(OCC(=O)O)cc(C)c1Cc1ccc(O)c(C(C)C)c1` ?
*A* 9.54

*Q* Which inhibition value belongs to `Cc1cc(C(=O)N2Cc3cnn(C)c3Nc3ccccc32)ccc1CNC(=O)N1CCC[C@H]1C(=S)N1CCCN(C)CC1` ?
*A* -2.21

*Q* Which inhibition value belongs to `CC(C)C[C@@H](C(=O)N[C@@H](Cc1ccc(OCc2ccccc2)cc1)C(=O)NC(C)(C)C)N(C)Cc1ccc(C(C)(C)C)cc1` ?
*A* -4.08

---

# SUBJECT OF TEST: Single-strand selective monofunctional uracil DNA glycosylase (Homo sapiens) (UniProt Q53HV7)
# Sequence (whole entry): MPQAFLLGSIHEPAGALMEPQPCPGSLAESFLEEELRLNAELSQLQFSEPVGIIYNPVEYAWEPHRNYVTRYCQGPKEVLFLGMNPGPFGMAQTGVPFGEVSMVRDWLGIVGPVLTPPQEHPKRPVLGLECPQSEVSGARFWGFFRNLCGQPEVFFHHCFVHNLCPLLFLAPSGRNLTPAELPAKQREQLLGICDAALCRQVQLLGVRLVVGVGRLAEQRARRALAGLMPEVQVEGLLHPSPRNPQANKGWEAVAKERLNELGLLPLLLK
# DETAILS: Compound Concentration 10.0 uM, Hit No
PARAMETER: inhibition (%)
Value expressed in %; do not type the unit.

Take a look at these entries with their results.
[[record]]
compound = "CC(C)NCC(O)COc1ccc(CCOCC2CC2)cc1 (centres undefined)"
parameter = "inhibition"
value_observed = 5.49

[[record]]
compound = "CC(C)(C[C@H]1CN(S(=O)(=O)c2cccc(C(F)(F)F)c2)c2cc(-c3cc(F)cc(OC(F)F)c3)ccc2O1)C(=O)O"
parameter = "inhibition"
value_observed = 22.1

[[record]]
compound = "Cc1cc(Cn2cnc3c2C[C@@H](C(=O)O)N(C(=O)C(c2ccccc2)c2ccccc2)C3)ccc1N(C)C"
parameter = "inhibition"
value_observed = 7.18

[[record]]
compound = "C[C@]1(O)C[C@@H](c2nc(-c3ccc4ccc(-c5ccccc5)nc4c3)c3c(N)nccn32)C1"
parameter = "inhibition"
value_observed = 18.4


*Q* Which inhibition value belongs to `Cn1cc(-c2ccc3occ(-c4cccc(-c5ccncc5)c4)c3n2)cn1` ?
*A* 13.1

*Q* Which inhibition value belongs to `CN1CCN(C(=O)c2ccc3cc2OCCOCCNc2ccn4ncc-3c4n2)CC1` ?
*A* 13.6

*Q* Which inhibition value belongs to `COc1cc2c(cc1CC=C(C)C)C(=O)C[C@@H](c1ccc(O)cc1)O2` ?
*A* 19.4
